Assay: Biodistribution in U87MG tumor-bearing mice
Assay type: in vivo
Conditions: female, CD-1 nude (athymic nude), mouse, muscle, iv, 5 MBq per mouse, total radioactivity, i.v. ~5 MBq (~1 nmol), 5 h p.i., mean ± SD, n=3, read-out: Biodistribution, Muscle
Consider the following molecules and their measured tissue uptake at 5 h readings.
Use %ID/g as the unit, but write only the number.

- molecule: "N=C(N)NCCC[C@@H]1NC(=O)[C@H](CCCCNC(=O)CN2CCN(CC(=O)O)CCN(CC(=O)O)CCN(CC(=O)O)CC2)NC(=O)[C@@H](Cc2ccccc2)NC(=O)[C@H](CC(=O)O)NC(=O)CNC1=O [^44Sc-DOTA-RGD, metal not drawn]"
  metric name: "tissue uptake at 5 h"
  unit tag: "%ID/g"
  number: 0.28

Challenge: Bench note: what tissue uptake at 5 h did N=C(N)NCCC[C@@H]1NC(=O)[C@H](CCCCNC(=O)CCC(C(=O)O)N2CCN(CC(=O)O)CCN(CC(=O)O)CC2)NC(=O)[C@@H](Cc2ccc(O)cc2)NC(=O)[C@H](CC(=O)O)NC(=O)CNC1=O (some centres unmarked) [^44Sc-NODAGA-RGD, metal not drawn] show?
Response given: 0.3

###

// values below are reported tissue uptake at 0.5 h
Assay: Biodistribution in U87MG tumor-bearing mice
Format: in vivo
Conditions: female, CD-1 nude (athymic nude), mouse, bone, iv, 5 MBq per mouse, total radioactivity, i.v. ~5 MBq (~1 nmol), 30 min p.i., mean ± SD, n=3, read-out: Biodistribution, Bone
Express the result in %ID/g but write the number alone.

- compound: "N=C(N)NCCC[C@@H]1NC(=O)[C@H](CCCCNC(=O)CN2CCN(CC(=O)O)CCN(CC(=O)O)CCN(CC(=O)O)CC2)NC(=O)[C@@H](Cc2ccccc2)NC(=O)[C@H](CC(=O)O)NC(=O)CNC1=O [^44Sc-DOTA-RGD, metal not drawn]"
  tissue uptake at 0.5 h, %ID/g: 1.17

--- query ---
Challenge: Entry N=C(N)NCCC[C@@H]1NC(=O)[C@H](CCCCNC(=O)CCC(C(=O)O)N2CCN(CC(=O)O)CCN(CC(=O)O)CC2)NC(=O)[C@@H](Cc2ccc(O)cc2)NC(=O)[C@H](CC(=O)O)NC(=O)CNC1=O (some centres unmarked) [^44Sc-NODAGA-RGD, metal not drawn] : reported tissue uptake at 0.5 h = ?
Response given: 1.53

###

Experiment: in vivo
Details: female, CD-1 nude (athymic nude), mouse, iv, 5 MBq per mouse, total radioactivity, Biodistribution, Stomach
metric name: tissue uptake at 5 h (%ID/g)
Response body: numeric value in %ID/g, unit text excluded.

Challenge: Field request: tissue uptake at 5 h | item: C[C@@H](O)[C@@H]1NC(=O)[C@H](CCCCN)NC(=O)[C@@H](Cc2c[nH]c3ccccc23)NC(=O)[C@H](Cc2cccc3ccccc23)NC(=O)[C@@H](NC(=O)[C@@H](Cc2ccccc2)NC(=O)CN2CCN(CC(=O)O)CCN(CC(=O)O)CCN(CC(=O)O)CC2)CSSC[C@@H](C(=O)N[C@H](CO)[C@@H](C)O)NC1=O [^44Sc-DOTA-NOC, metal not drawn]
Response given: 0.52

###

Entries and their tissue uptake at 5 h
Test: Biodistribution in U87MG tumor-bearing mice
Format: in vivo
Settings: female, CD-1 nude (athymic nude), mouse, bone, iv, 5 MBq per mouse, total radioactivity, i.v. ~5 MBq (~1 nmol), 5 h p.i., mean ± SD, n=3, read-out: Biodistribution, Bone

- compound: "N=C(N)NCCC[C@@H]1NC(=O)[C@H](CCCCNC(=O)CCC(C(=O)O)N2CCN(CC(=O)O)CCN(CC(=O)O)CC2)NC(=O)[C@@H](Cc2ccc(O)cc2)NC(=O)[C@H](CC(=O)O)NC(=O)CNC1=O (some centres unmarked) [^44Sc-NODAGA-RGD, metal not drawn]"
  tissue uptake at 5 h: "0.76 %ID/g"

Challenge: Any idea what its tissue uptake at 5 h is? The compound is N=C(N)NCCC[C@@H]1NC(=O)[C@H](CCCCNC(=O)CN2CCN(CC(=O)O)CCN(CC(=O)O)CCN(CC(=O)O)CC2)NC(=O)[C@@H](Cc2ccccc2)NC(=O)[C@H](CC(=O)O)NC(=O)CNC1=O [^44Sc-DOTA-RGD, metal not drawn]
Response given: 0.52 %ID/g

###

Assay: Biodistribution in AR42J tumor-bearing mice
Conditions: female, CD-1 nude (athymic nude), mouse, liver, iv, total radioactivity, Biodistribution, i.v. ~5 MBq (~1 nmol), 30 min p.i., mean ± SD, n=3
metric name: tissue uptake at 0.5 h (%ID/g)
API: value field is a number in %ID/g; no unit string.

Challenge: What measured tissue uptake at 0.5 h goes with C[C@@H](O)[C@@H]1NC(=O)[C@H](CCCCN)NC(=O)[C@@H](Cc2c[nH]c3ccccc23)NC(=O)[C@H](Cc2cccc3ccccc23)NC(=O)[C@@H](NC(=O)[C@@H](Cc2ccccc2)NC(=O)CCC(C(=O)O)N2CCN(CC(=O)O)CCN(CC(=O)O)CC2)CSSC[C@@H](C(=O)N[C@H](CO)[C@@H](C)O)NC1=O (stereo partly shown) [^44Sc-NODAGA-NOC, metal not drawn] ?
Response given: 1.22

###

Assay: Biodistribution in U87MG tumor-bearing mice
Assay type: in vivo
Settings: female, CD-1 nude (athymic nude), mouse, U87MG tumor / kidneys, iv, total radioactivity, i.v. ~5 MBq (~1 nmol), 2 h p.i., mean ± SD, n=3, read-out: Tumor-to-kidney ratio
tissue to tissue ratio at 2 h for assorted compounds
I only need the number, thanks.

- compound: "N=C(N)NCCC[C@@H]1NC(=O)[C@H](CCCCNC(=O)CCC(C(=O)O)N2CCN(CC(=O)O)CCN(CC(=O)O)CC2)NC(=O)[C@@H](Cc2ccc(O)cc2)NC(=O)[C@H](CC(=O)O)NC(=O)CNC1=O (some centres unmarked) [^44Sc-NODAGA-RGD, metal not drawn]"
  metric name: "tissue to tissue ratio at 2 h"
  number: 2.68

Consider now this further compound.
Challenge: // tissue to tissue ratio at 2 h lookup, key: N=C(N)NCCC[C@@H]1NC(=O)[C@H](CCCCNC(=O)CN2CCN(CC(=O)O)CCN(CC(=O)O)CCN(CC(=O)O)CC2)NC(=O)[C@@H](Cc2ccccc2)NC(=O)[C@H](CC(=O)O)NC(=O)CNC1=O [^44Sc-DOTA-RGD, metal not drawn]
Response given: 1.77

###

Experiment: Biodistribution in U87MG tumor-bearing mice
Type: in vivo
Conditions: female, CD-1 nude (athymic nude), mouse, liver, iv, total radioactivity, i.v. ~5 MBq (~1 nmol), 2 h p.i., mean ± SD, n=3, read-out: Biodistribution, Liver
metric name: tissue uptake at 2 h

- compound: "N=C(N)NCCC[C@@H]1NC(=O)[C@H](CCCCNC(=O)CCC(C(=O)O)N2CCN(CC(=O)O)CCN(CC(=O)O)CC2)NC(=O)[C@@H](Cc2ccc(O)cc2)NC(=O)[C@H](CC(=O)O)NC(=O)CNC1=O (some centres unmarked) [^44Sc-NODAGA-RGD, metal not drawn]"
  tissue uptake at 2 h: "1.34 %ID/g"

Now, please, on to the next compound.
Challenge: Find the recorded tissue uptake at 2 h belonging to N=C(N)NCCC[C@@H]1NC(=O)[C@H](CCCCNC(=O)CN2CCN(CC(=O)O)CCN(CC(=O)O)CCN(CC(=O)O)CC2)NC(=O)[C@@H](Cc2ccccc2)NC(=O)[C@H](CC(=O)O)NC(=O)CNC1=O [^44Sc-DOTA-RGD, metal not drawn] and report it.
Response given: 4.9 %ID/g

###

Test: Biodistribution in U87MG tumor-bearing mice
Type: in vivo
Conditions: female, CD-1 nude (athymic nude), mouse, lung, iv, 5 MBq per mouse, total radioactivity, i.v. ~5 MBq (~1 nmol), 5 h p.i., mean ± SD, n=3, read-out: Biodistribution, Lung
metric name: tissue uptake at 5 h (%ID/g)
Please state the figure in %ID/g; there is no need to write the unit.

Challenge: Reported tissue uptake at 5 h, molecule N=C(N)NCCC[C@@H]1NC(=O)[C@H](CCCCNC(=O)CN2CCN(CC(=O)O)CCN(CC(=O)O)CCN(CC(=O)O)CC2)NC(=O)[C@@H](Cc2ccccc2)NC(=O)[C@H](CC(=O)O)NC(=O)CNC1=O [^44Sc-DOTA-RGD, metal not drawn] : ____
Response given: 0.52

Challenge: Let us now turn to N=C(N)NCCC[C@@H]1NC(=O)[C@H](CCCCNC(=O)CCC(C(=O)O)N2CCN(CC(=O)O)CCN(CC(=O)O)CC2)NC(=O)[C@@H](Cc2ccc(O)cc2)NC(=O)[C@H](CC(=O)O)NC(=O)CNC1=O (some centres unmarked) [^44Sc-NODAGA-RGD, metal not drawn]
Response given: 0.65

###

Experiment: Biodistribution in U87MG tumor-bearing mice
Type: in vivo
Conditions: female, CD-1 nude (athymic nude), mouse, U87MG tumor / liver, iv, total radioactivity, i.v. ~5 MBq (~1 nmol), 30 min p.i., mean ± SD, n=3, read-out: Tumor-to-liver ratio
metric name: tissue to tissue ratio at 0.5 h
In your answer, state the number alone without any accompanying words.

Challenge: What does the record list as tissue to tissue ratio at 0.5 h for N=C(N)NCCC[C@@H]1NC(=O)[C@H](CCCCNC(=O)CN2CCN(CC(=O)O)CCN(CC(=O)O)CCN(CC(=O)O)CC2)NC(=O)[C@@H](Cc2ccccc2)NC(=O)[C@H](CC(=O)O)NC(=O)CNC1=O [^44Sc-DOTA-RGD, metal not drawn] ?
Response given: 0.99

Challenge: Next compound up: N=C(N)NCCC[C@@H]1NC(=O)[C@H](CCCCNC(=O)CCC(C(=O)O)N2CCN(CC(=O)O)CCN(CC(=O)O)CC2)NC(=O)[C@@H](Cc2ccc(O)cc2)NC(=O)[C@H](CC(=O)O)NC(=O)CNC1=O (some centres unmarked) [^44Sc-NODAGA-RGD, metal not drawn]
Response given: 3.02
